# PROCEDURE_SUMMARY: in vitro
# COND: human, microsomes, Half-Life, 2nd
MEASUREMENT_NAME: half-life at 100 nM (min)
Return type: number; implicit unit min.

Give reported half-life at 100 nM value for COc1cc(C(C)=O)ccc1OCCCCCC1CCSS1 (centres unmarked) [UPEI-104] 7.1

* * *

# PROCEDURE_SUMMARY: Stability in human plasma (Cerep, HPLC-MS/MS)
# Format: in vitro ADME
# COND: human, plasma, 1.0E−06 M, 37 °C, 0-120 min, read-out: Half-Life, Mean
half-life at 1 µM: recorded values

# COMPOUND, half-life at 1 µM
rows = [
    ("CC(C)[N+](C)(CCOC(=O)C1c2ccccc2Oc2ccccc21)C(C)C [Propantheline, reference compound]", "7 min"),
    ("COc1cc(C(C)=O)ccc1OCCCCCC1CCSS1 (stereo not shown) [UPEI-104]", "> 120 min"),
    ("COc1cc(C(C)=O)ccc1OC(=O)CCCCC1CCSS1 (stereo not shown) [UPEI-100]", "> 120 min"),
]

Let us move to another entry and its half-life at 1 µM.
Given CCCOc1cc(N)ccc1C(=O)OCCN(CC)CC [Propoxycaine, reference compound] , respond with its half-life at 1 µM. < 30 min
